test system: RPMI-8226 leukemia; assay: NCI tumour cell line growth inhibition, 48 h
Items are presented alongside their recorded TGI.

Solved entries (count: 3):
- CCn1c(O)c(C=Nc2ccccc2)s/c1=N/Nc1ncc(CC(=O)Nc2ccccc2C)s1: > 100 µM
- Cc1nnc2n1-c1ccccc1-c1[nH]c3ccccc3c1C2: > 100 µM
- O=C1/C=C/[C@@H](O)[C@@H]2C[C@@H](O)C[C@H]2/C=C/CCC[C@H](CCOCc2ccccc2)O1: 20.6 µM

q: Dear colleague, please send me the reported TGI for O=C(/C=C/c1ccc2ccccc2c1)NCc1ccc(C(=O)NCc2ccccc2)cc1 when you can.
a: > 100 µM

q: Provide TGI value for the following compound: O=C(CC(=O)n1nc(-c2ccccc2)c(N=Nc2ccccc2Cl)c1-c1ccccc1)Nc1ccc(Cl)cc1
a: > 66.1 µM

q: Please supply the value of reported TGI for the item CCCCCCCCCCCCc1ccsc1-c1ccc(-c2ccc(-c3sc(-c4cc(CCCCCCCCCCCC)c(-c5ccc(-c6ccc(-c7sccc7CCCCCCCCCCCC)s6)s5)s4)cc3CCCCCCCCCCCC)s2)s1
a: > 100 µM

q: Look up and state reported TGI for COc1cc2c(c(OC)c1OC)-c1ccc(SC)c(=O)cc1[C@@H](NCc1ccccc1[N+](=O)[O-])CC2
a: 23.1 µM

q: Check the records and state TGI for N#Cc1c(N)c2c(c(-c3ccccc3)c1-c1ccccc1)C(=O)N(N)C2=O
a: > 100 µM

q: Identify the reported TGI for the following entry. COc1cccc(C2=C(c3cn(C)c4ccc(Cl)cc34)C(=O)NC2=O)c1
a: > 20.4 µM

q: Give a short answer stating reported TGI for O=c1cc(-c2ccc3ccccc3c2)[nH]c2ncc(Cl)cc12 .
a: 24.5 µM

q: Respond only with TGI recorded for S=C(S)NCCNC(=S)S.[Cu+2]
a: > 100 µM

q: Specify measured TGI for COC1=C(OC)C(=O)C(CCCCCCCCCC[P+](c2ccccc2)(c2ccccc2)c2ccccc2)=C(C)C1=O .
a: 0.143 µM

q: Give TGI for the following compound: O=S(=O)(c1ccc(Cl)cc1)c1ccccc1C1=NCCN1
a: > 100 µM

q: Given Cc1ccccc1OC(C)C(=O)NN1C(=O)CC(=O)NC1=S (stereo unspecified) , respond with its TGI.
a: > 100 µM

###

Below, each of the compounds is paired with its reported TGI value.
test system: KM12 colon; assay: NCI tumour cell line growth inhibition, 48 h
The reply should be a number in µM, with the unit left off.

• Clc1ccc2c(N3CCN(c4ccnc(NC5CCCCC5)n4)CC3)ccnc2c1 = 4.49
• O=C(CCc1nnc2s/c(=C\c3ccccc3[N+](=O)[O-])c(=O)n12)Nc1cc(Cl)c(Cl)cc1Cl = 43.4
• COC1=C(OC)C(=O)C(CCCCCCCCCC[P+](c2ccccc2)(c2ccccc2)c2ccccc2)=C(C)C1=O = 0.884

Now for the compound whose TGI we want.
q: Specify reported TGI for the compound shown: C=C1CC2(CC(c3ccccc3OC)OC(c3ccccc3OC)C2)OC1=O (stereo not given)
a: 6.65

###

system: TK-10 renal; assay: NCI tumour cell line growth inhibition, 48 h
Reported TGI values for a set of compounds

Worked examples follow.
- CCOC(=O)C1OC(=O)CC1C1(C(=O)OCC)C=CC(=O)O1 (stereo not given): > 100 µM
- Cc1cc2c(c(S(=O)(=O)c3ccc(Cl)cc3[N+](=O)[O-])c1)NCCC2: > 100 µM
- O=c1cc(-c2ccccc2)nc(-n2[nH]c3c(c2=O)CCCC3)[nH]1: > 100 µM
- O=C1/C(=C/c2ccco2)N=C(c2ccccc2)N1c1ccc(S(=O)(=O)Nc2nccs2)cc1: > 100 µM
- CC#CC(O)(C(=O)OC1CCC2CCC1N2C)C1CCCC1 (stereo not given): > 100 µM
- CC1CCCc2sc3nc(NNC(=O)c4cnccn4)n(-c4ccccc4)c(=O)c3c21 (stereo not given): > 83 µM

--- query ---
q: Tell me TGI of CSc1nc(-c2cc3ccccc3o2)cc(-c2ccc(Cl)cc2)c1C#N when tested on TK-10 renal.
a: 31.8 µM
